Give IC50 for every item shown.
- tgt: Glycogen [starch] synthase, muscle (Homo sapiens, UniProt P13807)
- Sequence (P13807 whole entry): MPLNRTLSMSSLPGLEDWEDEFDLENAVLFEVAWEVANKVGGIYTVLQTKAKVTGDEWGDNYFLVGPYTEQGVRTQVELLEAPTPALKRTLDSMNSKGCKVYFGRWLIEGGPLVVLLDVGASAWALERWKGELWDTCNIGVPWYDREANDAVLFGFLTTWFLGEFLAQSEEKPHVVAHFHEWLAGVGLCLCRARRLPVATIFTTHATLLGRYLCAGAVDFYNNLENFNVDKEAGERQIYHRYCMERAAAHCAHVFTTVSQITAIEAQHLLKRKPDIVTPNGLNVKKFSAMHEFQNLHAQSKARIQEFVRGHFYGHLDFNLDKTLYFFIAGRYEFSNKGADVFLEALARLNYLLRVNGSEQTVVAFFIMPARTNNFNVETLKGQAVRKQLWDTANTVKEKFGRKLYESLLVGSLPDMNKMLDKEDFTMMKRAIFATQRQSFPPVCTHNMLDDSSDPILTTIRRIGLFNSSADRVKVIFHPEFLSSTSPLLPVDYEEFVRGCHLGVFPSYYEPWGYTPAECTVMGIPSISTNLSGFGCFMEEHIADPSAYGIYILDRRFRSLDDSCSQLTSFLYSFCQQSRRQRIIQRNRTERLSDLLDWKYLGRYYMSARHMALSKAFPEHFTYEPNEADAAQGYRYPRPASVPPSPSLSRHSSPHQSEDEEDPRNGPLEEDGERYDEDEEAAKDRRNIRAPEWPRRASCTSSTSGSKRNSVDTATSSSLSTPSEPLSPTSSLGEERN
- assay-info: Inhibition of C-terminal 6His-tagged wild type human GYS1 using UDPG as substrate in presence of 1 mM G-6-P by 14C-glucose incorporation assay

# IC50 lookup, item Oc1ccc(-c2c(-c3cc(F)c(O)cc3O)n[nH]c2C(F)(F)F)cc1
72.4 µM

# IC50 lookup, item O=C(O)CCc1ccc(-c2ccccc2)n1-c1ccc(O)cc1
384 µM

# IC50 lookup, item Oc1ccc(-c2n[nH]c(C(F)(F)F)c2-c2ccc(Cl)c(Cl)c2)c(O)c1O
13.7 µM

# IC50 lookup, item Oc1ccc(-c2n[nH]c(C(F)(F)F)c2-c2ccc(Cl)cc2)c(O)c1O
19.8 µM

* * *

- tgt: Glycogen [starch] synthase, muscle (Homo sapiens)
- assay-info: Inhibition of C-terminal 6His-tagged wild type human GYS1 assessed as enzyme activity at 300 uM using UDPG as substrate in presence of 1 mM G-6-P by 14C-glucose incorporation assay relative to control
- Design: scale not given: the % may be the effect or the level left
Kindly apply the following: satisfied if Activity is less than 80%, not satisfied in every other case.

Problem: For the compound Oc1ccc(-n2c(-c3ccccc3)ccc2-c2ccccc2)cc1 , is Activity under 80%?
not satisfied

Problem: For the compound Cc1ccc(-c2ccccc2)n1-c1ccc(O)cc1 , is Activity under 80%?
not satisfied

Problem: For the compound Oc1ccc(-c2c(-c3ccccc3)ncn2CCc2c[nH]cn2)cc1 , is Activity under 80%?
not satisfied

Problem: For the compound COc1ccc(-c2ccc(CCC(=O)O)n2-c2ccc(O)cc2)cc1 , is Activity under 80%?
not satisfied

Problem: For the compound Oc1ccc(-c2c(-c3ccccc3)ncn2CCCn2ccnc2)cc1 , is Activity under 80%?
not satisfied

Problem: For the compound COc1cc(-c2c(-c3ccccc3)ncn2CCC2CCCN2C)ccc1O (racemic) , is Activity under 80%?
satisfied

Problem: For the compound Cc1[nH]nc(-c2ccc(O)c(O)c2O)c1-c1ccc(Cl)cc1 , is Activity under 80%?
satisfied

Problem: For the compound O=C(O)CCc1ccc(-c2ccccc2)n1-c1ccc(F)cc1 , is Activity under 80%?
not satisfied

Problem: For the compound c1ccc(-c2ncn(CCc3c[nH]cn3)c2-c2ccncc2)cc1 , is Activity under 80%?
not satisfied

Problem: For the compound O=C(O)CCc1ccc(-c2ccccc2)n1-c1ccc(O)cc1 , is Activity under 80%?
satisfied

Problem: For the compound CN1CCCC1CCn1cnc(-c2ccccc2)c1-c1ccncc1 (configuration not stated) , is Activity under 80%?
not satisfied

* * *

- Species: Homo sapiens
- assay-info: Inhibition of C-terminal 6His-tagged human GYS1 delta634S8,11N mutant assessed as enzyme activity at 20 uM using UDPG as substrate in presence of 0.4 mM G-6-P by 14C-glucose incorporation assay relative to control
- Design: scale not given: the % may be the effect or the level left
Label rule, in plain words: Activity of 10% and up is TRUE, under 10% is FALSE.

Is reported Activity greater than or equal to 10% here: O=[N+]([O-])c1ccc(-c2c(-c3ccc(O)cc3O)n[nH]c2C(F)(F)F)cc1
TRUE

Is reported Activity greater than or equal to 10% here: O=[N+]([O-])c1ccc(-c2c(-c3ccc(O)c(O)c3O)n[nH]c2C(F)(F)F)cc1
TRUE

Is reported Activity greater than or equal to 10% here: COC(=O)c1ccc(-c2c(-c3ccc(O)c(O)c3O)n[nH]c2C)cc1
TRUE

Is reported Activity greater than or equal to 10% here: Oc1ccc(-c2c(-c3ccc(O)c(O)c3O)n[nH]c2C(F)(F)F)cc1
FALSE

Is reported Activity greater than or equal to 10% here: O=[N+]([O-])c1ccc(-c2c[nH]nc2-c2ccc(O)c(O)c2O)cc1
TRUE

Is reported Activity greater than or equal to 10% here: N#Cc1ccc(-c2c(-c3ccc(O)c(O)c3O)n[nH]c2C(F)(F)F)cc1
FALSE

Is reported Activity greater than or equal to 10% here: Oc1ccc(-c2c[nH]nc2-c2ccc(O)c(O)c2O)cc1
TRUE

Is reported Activity greater than or equal to 10% here: Cc1[nH]nc(-c2ccc(O)c(O)c2O)c1-c1ccc(Cl)cc1
TRUE

Is reported Activity greater than or equal to 10% here: Oc1ccc(-c2n[nH]c(C(F)(F)F)c2-c2ccc(Cl)cc2)c(O)c1O
TRUE

Is reported Activity greater than or equal to 10% here: Oc1ccc(-c2n[nH]cc2-c2ccccc2)c(O)c1O
TRUE

* * *

- tgt: Glycogen [starch] synthase, muscle (Homo sapiens)
- assay-info: Inhibition of C-terminal 6His-tagged wild type human GYS1 assessed as enzyme activity at 20 uM using UDPG as substrate in presence of 1 mM G-6-P by 14C-glucose incorporation assay relative to control
- Parameters: scale not given: the % may be the effect or the level left
readout-type: Activity (%)
Unit % implied. Number only.

# Activity lookup, item Oc1ccc(-c2n[nH]cc2-c2ccc(Cl)c(Cl)c2)c(O)c1O
52.5

# Activity lookup, item Oc1ccc(-c2n[nH]c(C(F)(F)F)c2-c2ccc(OC(F)(F)F)cc2)c(O)c1O
81.4

# Activity lookup, item O=[N+]([O-])c1ccc(-c2c(-c3ccc(O)cc3O)n[nH]c2C(F)(F)F)cc1
89.2

# Activity lookup, item O=[N+]([O-])c1ccc(-c2c[nH]nc2-c2ccc(O)c(O)c2O)cc1
66.8

* * *

- Test system: Saccharomyces cerevisiae
- assay-info: Inhibition of recombinant His-tagged yeast GYS2P expressed in Escherichia coli BL21(DE3) cells assessed as enzyme activity at 300 uM using UDPG as substrate in presence of G-6-P by 14C-glucose incorporation assay relative to control
- Design: scale not given: the % may be the effect or the level left
readout-type: Activity (%)
Unit % implied. Number only.

# Activity lookup, item c1ccc(-c2ncn(CCc3c[nH]cn3)c2-c2ccncc2)cc1
72.7

# Activity lookup, item Oc1ccc(-c2c(-c3ccccc3)ncn2CCCn2ccnc2)cc1
94.8

# Activity lookup, item Oc1ccc(-n2c(-c3ccccc3)ccc2-c2ccccc2)cc1
86

# Activity lookup, item Oc1ccc(-c2c(-c3ccccc3)ncn2CCc2c[nH]cn2)cc1
66.6

# Activity lookup, item O=C(O)CCc1ccc(-c2ccccc2)n1-c1ccc(F)cc1
84.7

# Activity lookup, item NC(=O)c1ccc(-n2c(CCC(=O)O)ccc2-c2ccccc2)cc1
49.3

# Activity lookup, item COc1cc(-c2c(-c3ccccc3)ncn2CCC2CCCN2C)ccc1O (racemic)
36.5

* * *

- Organism: Homo sapiens
- assay-info: Inhibition of C-terminal 6His-tagged human GYS1 delta634S8,11N mutant assessed as enzyme activity at 20 uM using UDPG as substrate in presence of 0.4 mM G-6-P by 14C-glucose incorporation assay relative to control
- Design: scale not given: the % may be the effect or the level left
Give Activity for every item shown.
Unit % implied. Number only.

# Activity lookup, item Cc1[nH]nc(-c2ccc(O)c(O)c2O)c1-c1ccc(Cl)c(Cl)c1
81.7

# Activity lookup, item Oc1ccc(-c2n[nH]c(C(F)(F)F)c2-c2ccccc2)c(O)c1O
5.68

# Activity lookup, item Oc1ccc(-c2n[nH]c(C(F)(F)F)c2-c2ccc(Cl)cc2)c(O)c1
87.9
